Source: patent US20100022559A1

measurement_notes: logP determination by HPLC on a reversed-phase column (C 18), EEC Directive 79/831 Annex V.A8
Type: physicochemical
experimental_setup: value marked [b]
property_name: logP

- molecule: "CCC(=NOCC(C)CON=C(CC)c1cccc(CC)n1)c1cccc(CC)n1 (mixture of isomers)"
  measured_result: "6.33^[b]"
- molecule: "C=C(CON=C(C)c1cccc(C)n1)CON=C(C)c1cc2ccccc2o1"
  measured_result: "4.57^[b]"
- molecule: "CC(=NOCC(C)CON=C(C)c1cc(C)c(C)nn1)c1cc(C)c(C)nn1 (centres unmarked)"
  measured_result: "2.58^[b]"
- molecule: "CC(=NOCC(C)CON=C(C)c1cc(Cl)cc(C)n1)c1cc(C)cc(C)n1 (racemic)"
  measured_result: "5.69^[b]"
- molecule: "CC(=NOc1nc(Cl)nc(ON=C(C)c2cccc(C)n2)c1Cl)c1cccc(C)n1 (single isomer, unassigned) [compound 780]"
  measured_result: "4.22^[b]"
- molecule: "CC(=NOCCCCCCON=C(C)c1cccc(C)n1)c1ccccn1"
  measured_result: "4.41^[b]"
- molecule: "COc1cc(OC)nc(C(C)=NOCC(C)CON=C(C)c2nc(OC)cc(OC)n2)n1 (centres unmarked)"
  measured_result: "4.49^[b]"
- molecule: "CC(=NOCCCCON=C(C)c1nccc(C)n1)c1cccc(C)n1"
  measured_result: "2.37^[b]"
